target: human CXCR3 (N-delta 4) (Homo sapiens, UniProt P49682); construct: CD8 leader; Flag tag; expressed in transfected cells; membranes used; experiment: Human CXCR3 (N-delta 4) scintillation proximity assay (SPA), [125I] IP-10 binding; settings: IC50 rating; Ba/F3-hCXCR3 (N-delta 4) membranes, 25 pM [125I] IP-10
Sequence (P49682 5-368 limits assumed): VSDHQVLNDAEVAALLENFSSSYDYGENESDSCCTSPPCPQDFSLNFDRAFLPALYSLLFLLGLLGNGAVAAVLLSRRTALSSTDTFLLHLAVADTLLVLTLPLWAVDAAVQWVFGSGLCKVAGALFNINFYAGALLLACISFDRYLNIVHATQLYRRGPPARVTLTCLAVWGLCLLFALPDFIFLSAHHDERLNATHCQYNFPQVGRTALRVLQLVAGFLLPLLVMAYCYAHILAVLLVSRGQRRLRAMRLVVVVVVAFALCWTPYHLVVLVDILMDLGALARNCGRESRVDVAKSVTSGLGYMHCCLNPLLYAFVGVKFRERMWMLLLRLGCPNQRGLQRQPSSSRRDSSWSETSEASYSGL
pIC50: −log10 of the molar value.
MEASUREMENT_LABEL: pIC50

q: Report measured pIC50; entry is CNC(=O)c1cnc(N2CCN(C3CCN(Cc4ccc(Cl)cc4)C(C)C3)[C@@H](C)C2)c(Cl)c1 (stereo partly drawn) [compound 159]
a: 7.00 to 7.60

q: For `O=C(NCc1ccc(Cl)cc1)c1cnc(N2CCN(C3CCN(Cc4ccc(Cl)cc4Cl)CC3)CC2)c(Cl)c1` , write its pIC50.
a: < 7.00

Next, consider the following compound.
q: Identify measured pIC50 corresponding to `N#Cc1ccc(C(=O)N2CCC(N3CCN(c4ncc(C(=O)NCc5ccc(Cl)c(Cl)c5)cc4Br)CC3)CC2)cc1`
a: 7.00 to 7.60
